Source: PubChem BioAssay AID1845212

- System: NCI-H719 tumor spheroids, viability
- method notes: Anticancer human tumor NCI-H719 cell line growth inhibition;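 note: spheroids exposed to compounds for seven days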
- cond: curve of first compound; second compound 0.0003 µM; spheroids with HUVEC and MSC
pIC50: −log10 of the molar value.
Would you mind telling me the reported pIC50 of each entry?

Q. Give a short answer stating reported pIC50 for COc1ccc([C@@H](O)c2cc(-c3ncnc4cc(N5CCOCC5)ccc34)c(F)cc2Cl)nn1 + COc1cc2c(cc1O)CCNC21CSC2c3c(OC(C)=O)c(C)c4c(c3C(COC1=O)N1C(O)C3Cc5cc(C)c(OC)c(O)c5C(C21)N3C)OCO4 .
A. > 7.50

Q. Give a short answer stating reported pIC50 for CNCc1ccc(-c2cc(-c3nc(-c4ccc(S(=O)(=O)C(C)C)cc4)cnc3N)on2)cc1 + COc1cc2c(cc1O)CCNC21CSC2c3c(OC(C)=O)c(C)c4c(c3C(COC1=O)N1C(O)C3Cc5cc(C)c(OC)c(O)c5C(C21)N3C)OCO4 .
A. > 8.02

* * *

- System: NCI-H719 tumor spheroids, viability
- method notes: Anticancer human tumor NCI-H719 cell line growth inhibition; active = viability on the fitted dose curve at most 10% of control; inactive = the rest;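 note: spheroids exposed to compounds for seven days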
- cond: second compound 1 µM; first compound 0.3 µM; spheroids with HUVEC and MSC
Give one outcome, nothing more. List: active, inactive

Q. Short answer needed: outcome of this test for O=C(c1cc(Cc2n[nH]c(=O)c3ccccc23)ccc1F)N1CCN(C(=O)C2CC2)CC1 + Cn1nnc2c(C(N)=O)ncn2c1=O ?
A. inactive

Q. Short answer needed: outcome of this test for Cn1ncnc1[C@H]1c2n[nH]c(=O)c3cc(F)cc(c23)N[C@@H]1c1ccc(F)cc1 + Cn1nnc2c(C(N)=O)ncn2c1=O ?
A. active

Q. Short answer needed: outcome of this test for CNCc1ccc(-c2cc(-c3nc(-c4ccc(S(=O)(=O)C(C)C)cc4)cnc3N)on2)cc1 + Cn1nnc2c(C(N)=O)ncn2c1=O ?
A. inactive

Q. Short answer needed: outcome of this test for Cc1sc2c(c1C)C(c1ccc(Cl)cc1)=NC(CC(=O)Nc1ccc(O)cc1)c1nnc(C)n1-2 (centres undefined) + Cn1nnc2c(C(N)=O)ncn2c1=O ?
A. inactive

* * *

- Tested on: NCI-H719 tumor spheroids, viability
- method notes: Anticancer human tumor NCI-H719 cell line growth inhibition;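 note: spheroids exposed to compounds for seven days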
- cond: curve of first compound; second compound 100 µM; spheroids with HUVEC and MSC
- Description: Multicellular complex tumor spheroid response to DNA repair inhibitors in combination with DNA-damaging drugs This study explores the anticancer activities of DNA-damaging drugs and inhibitors of DNA damage repair, both as single agents and in combinations. […] Twenty-six patient-derived or established malignant cell lines were evaluated representing sarcoma, melanoma, small cell lung cancer (SCLC), non-small cell lung cancer (NSCLC), as well as bladder, ovarian and pancreatic cancers. […]
experimental endpoint: IC50

Q. Give a short answer stating reported IC50 for CC1COCCN1c1cc(-c2ccnn2C)c2ccnc(-c3ccn[nH]3)c2n1 (stereo not given) + Cn1nnc2c(C(N)=O)ncn2c1=O .
A. < 31.6 nM

Q. Give a short answer stating reported IC50 for [2H]c1nc(C)nc([2H])c1-c1cc(NC[C@@H](C)c2cccc3c(C(=O)NC)ccnc23)ncn1 + Cn1nnc2c(C(N)=O)ncn2c1=O .
A. > 10000 nM

Q. Give a short answer stating reported IC50 for O=C(c1cc(Cc2n[nH]c(=O)c3ccccc23)ccc1F)N1CCN(C(=O)C2CC2)CC1 + Cn1nnc2c(C(N)=O)ncn2c1=O .
A. < 94.9 nM

Q. Give a short answer stating reported IC50 for CNCc1ccc(-c2cc(-c3nc(-c4ccc(S(=O)(=O)C(C)C)cc4)cnc3N)on2)cc1 + Cn1nnc2c(C(N)=O)ncn2c1=O .
A. 33.6 nM

Q. Give a short answer stating reported IC50 for Cc1cc(C)c(CNC(=O)c2cc(-c3ccc(CN4CCOCC4)cc3)cc3c2cnn3C2CCCC2)c(=O)[nH]1 + Cn1nnc2c(C(N)=O)ncn2c1=O .
A. > 10000 nM

Q. Give a short answer stating reported IC50 for CC(C)n1c(=O)n(C)c2cnc3cc(F)c(-c4ccc(OCCCN5CCCCC5)nc4)cc3c21 + Cn1nnc2c(C(N)=O)ncn2c1=O .
A. > 10000 nM

Q. Give a short answer stating reported IC50 for COc1cc(C)[nH]c(=O)c1CN1CCc2c(Cl)cc(C(OC)C3COC3)c(Cl)c2C1=O (stereo not given) + Cn1nnc2c(C(N)=O)ncn2c1=O .
A. > 10000 nM

Q. Give a short answer stating reported IC50 for Cc1sc2c(c1C)C(c1ccc(Cl)cc1)=NC(CC(=O)Nc1ccc(O)cc1)c1nnc(C)n1-2 (stereo not given) + Cn1nnc2c(C(N)=O)ncn2c1=O .
A. 54.1 nM

Q. Give a short answer stating reported IC50 for COc1ccc([C@@H](O)c2cc(-c3ncnc4cc(N5CCOCC5)ccc34)c(F)cc2Cl)nn1 + Cn1nnc2c(C(N)=O)ncn2c1=O .
A. 506 nM

Q. Give a short answer stating reported IC50 for Cn1ncnc1[C@H]1c2n[nH]c(=O)c3cc(F)cc(c23)N[C@@H]1c1ccc(F)cc1 + Cn1nnc2c(C(N)=O)ncn2c1=O .
A. < 9.49 nM
